- Test system: IL33-induced NFκB activity
- EXPERIMENTAL PROTOCOL: HEK-BlueIL33 NFκB Reporter Assay
- Assay type: cell-based, human
- MEASUREMENT CONTEXT: nM range, read-out: IC50, inhibition of IL33-induced NFκB activity
OBSERVATION TYPE: IC50 (nM)
Provide the reading as a plain figure in nM.

Sure, the documented IC50 for 74804_07K10A: anti-IL1RAP mAb; VH SEQ ID NO:5, VL SEQ ID NO:22, κ light chain (antibody, V domains shown, 74804_07K10A VH; 74804_07K10A VL, 74804_29D13A VL and 74804_43F04A VL) VH: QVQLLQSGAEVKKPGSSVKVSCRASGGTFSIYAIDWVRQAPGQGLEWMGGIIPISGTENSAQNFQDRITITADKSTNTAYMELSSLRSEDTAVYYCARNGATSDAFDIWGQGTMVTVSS VL: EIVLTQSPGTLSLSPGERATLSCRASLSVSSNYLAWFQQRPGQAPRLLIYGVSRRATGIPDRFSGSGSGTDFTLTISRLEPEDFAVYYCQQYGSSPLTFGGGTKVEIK is 6.62
